test system: mock-infected MT-4 cells; experiment: Cytotoxicity based on viability of mock-infected host cells (MTT method); type: cell-based; conditions: mock-infected MT-4 cells, MTT method, 4 or 5 days at 37° C.
outcome.measure: CD50

Below, 3 compounds whose answers are already recorded.
structure.notation | experimental.target | CD50
CCc1c(C(=O)c2cc(C)cc(C)c2)n(Cc2cc(F)ccc2F)c(=O)[nH]c1=O | mock-infected MT-4 cells | >100.00 µg/mL
Cc1cc(C)cc(Sc2c(C(C)C)c(=O)[nH]c(=O)n2Cc2ccccc2C#N)c1 | mock-infected MT-4 cells | >100.00 µg/mL
Cc1cc(C)cc(Sc2c(C(C)C)c(=O)[nH]c(=O)n2Cc2ccc(OC(F)(F)F)cc2)c1 | mock-infected MT-4 cells | 8.99 µg/mL

Give measured CD50 for every item shown.
1. Cc1cc(C)cc(C(=O)c2c(C(C)C)c(=O)[nH]c(=O)n2Cc2cc(Cl)cc(Cl)c2)c1
2. CCc1c(Sc2cc(C)cc(C)c2)n(CC2CC2)c(=O)[nH]c1=O
3. CCc1c(C(=O)c2cc(C)cc(C)c2)n(CC(C)=O)c(=O)[nH]c1=O

1: 7.88 µg/mL; 2: 4.75 µg/mL; 3: 11.8 µg/mL

Give measured CD50 for every item shown.
1. Cc1cc(C)cc(C(=O)c2c(C(C)C)c(=O)[nH]c(=O)n2Cc2ccc3c(c2)C(=O)c2ccccc2C3=O)c1
2. Cc1cc(C)cc(C(=O)c2c(C(C)C)c(=O)[nH]c(=O)n2Cc2ccccc2C#N)c1

1. 14.41 µg/mL
2. >100.00 µg/mL

====

tested on: mock-infected MT-4 cells; assay: Cytotoxicity based on viability of mock-infected host cells (MTT method); type: cell-based; conditions: mock-infected MT-4 cells, MTT method, 4 or 5 days at 37° C.
So I've got a bunch of compounds here, and I need their CD50 values.
Give bare numbers, in µg/mL.

Below, 3 compounds whose answers are already recorded.
structure.notation | experimental.target | CD50 / µg/mL
CCc1c(C(=O)c2cc(C)cc(C)c2)n(Cc2c3ccccc3cc3ccccc23)c(=O)[nH]c1=O | mock-infected MT-4 cells | 0.94
Cc1cc(C)cc(Cn2c(Oc3cc(C)cc(C)c3)c(C(C)C)c(=O)[nH]c2=O)c1 | mock-infected MT-4 cells | 8.20
CCc1c(C(=O)c2cc(C)cc(C)c2)n(Cc2cc(F)cc(F)c2)c(=O)[nH]c1=O | mock-infected MT-4 cells | 7.0

The compound `CCc1c(Sc2cc(C)cc(C)c2)n(Cc2cc(OC)cc(OC)c2)c(=O)[nH]c1=O` showed CD50 equal to 10.8

====

outcome.measure: melting point

Below, 6 compounds whose answers are already recorded.
structure.notation | melting point
CCc1c(Sc2cc(C)cc(C)c2)n(Cc2cccc(C#N)c2)c(=O)[nH]c1=O | 179 to 181 °C
CCc1c(C(=O)c2cc(C)cc(C)c2)n(Cc2ccc3c(c2)C(=O)c2ccccc2C3=O)c(=O)[nH]c1=O | 143 to 146 °C
CCc1c(Sc2cc(C)cc(C)c2)n(Cc2ccc3c(c2)C(=O)c2ccccc2C3=O)c(=O)[nH]c1=O | 195 to 197 °C
Cc1cc(C)cc(C(=O)c2c(C(C)C)c(=O)[nH]c(=O)n2Cc2ccc3ccccc3n2)c1 | 152 to 154 °C
Cc1cc(C)cc(Cn2c(Sc3cc(C)cc(C)c3)c(C(C)C)c(=O)[nH]c2=O)c1 | 164 to 166 °C
COc1cc(Cn2c(Sc3cc(C)cc(C)c3)c(C(C)C)c(=O)[nH]c2=O)cc(OC)c1 | 157 to 160 °C

Give measured melting point for every item shown.
1. CCc1c(Oc2cc(C)cc(C)c2)n(Cc2ccccn2)c(=O)[nH]c1=O
2. Cc1cc(C)cc(Oc2c(C(C)C)c(=O)[nH]c(=O)n2Cc2ccc3c(c2)C(=O)c2ccccc2C3=O)c1
3. CCc1c(Oc2cc(C)cc(C)c2)n(Cc2cc(Br)cc(Br)c2)c(=O)[nH]c1=O
4. Cc1cc(C)cc(Oc2c(C(C)C)c(=O)[nH]c(=O)n2Cn2nnc3ccccc32)c1
5. Cc1cc(C)cc(Sc2c(C(C)C)c(=O)[nH]c(=O)n2Cc2ccc3c(c2)C(=O)c2ccccc2C3=O)c1
6. Cc1cc(C)cc(Sc2c(C(C)C)c(=O)[nH]c(=O)n2Cc2ccc(OC(F)(F)F)cc2)c1

["215 to 217 °C", "246 to 248 °C", "210 to 211 °C", "278 to 279 °C", "120 to 122 °C", "124 to 126 °C"]

Give measured melting point for every item shown.
1. CCc1c(C(=O)c2cc(C)cc(C)c2)n(Cc2ccc3ccccc3n2)c(=O)[nH]c1=O
2. Cc1cc(C)cc(Sc2c(C(C)C)c(=O)[nH]c(=O)n2Cc2cccnc2)c1

1. 218 to 220 °C
2. 159 to 161 °C

Give measured melting point for every item shown.
1. CCc1c(Sc2cc(C)cc(C)c2)n(Cc2ccc(OC(F)(F)F)cc2)c(=O)[nH]c1=O
2. CCc1c(C(=O)c2cc(C)cc(C)c2)n(CC2CC2)c(=O)[nH]c1=O
3. CCc1c(C(=O)c2cc(C)cc(C)c2)n(Cc2nc3ccccc3o2)c(=O)[nH]c1=O
4. Cc1cc(C)cc(Cn2c(Oc3cc(C)cc(C)c3)c(C(C)C)c(=O)[nH]c2=O)c1
5. Cc1cc(C)cc(C(=O)c2c(C(C)C)c(=O)[nH]c(=O)n2Cc2c3ccccc3cc3ccccc23)c1
6. CCc1c(C(=O)c2cc(C)cc(C)c2)n(Cc2ccccc2C#N)c(=O)[nH]c1=O
7. Cc1cc(C)cc(C(=O)c2c(C(C)C)c(=O)[nH]c(=O)n2Cc2cc(Br)cc(Br)c2)c1
8. CCc1c(Sc2cc(C)cc(C)c2)n(Cc2ccccc2C#N)c(=O)[nH]c1=O

1: 138 to 140 °C; 2: 234 to 236 °C; 3: 218 to 220 °C; 4: 175 to 177 °C; 5: 273 to 275 °C; 6: 257 to 259 °C; 7: 223 to 225 °C; 8: 221 to 223 °C
